- System: THRa:RXRa (NR concentration 90 nM, RXRa partner concentration 90 nM)
- TEST PROTOCOL: PBM binding z-score (relative to random genomic background probes); higher = stronger binding; sequences stand for … in GC…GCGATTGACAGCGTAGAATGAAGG
Exercise: state measured PBM binding z-score for each of the sequences provided.
Please respond with just the number, no unit label.

Inquiry: Give reported PBM binding z-score value for `TCGAGTGGGTTACGGGGGCATTCAGGGATGAAGA`
Reply text: 4.08

Inquiry: Give reported PBM binding z-score value for `CTTAGTTGGTCAAGGTCACACACGCTATAGGTAC`
Reply text: 4.43

Inquiry: Give reported PBM binding z-score value for `CCGAGTAGGTTACGAGGGGGCATTCACTGCGAAT`
Reply text: 3.81

Inquiry: Give reported PBM binding z-score value for `TAGCCTAGGTCATTGGACCAGTATAGTACGCATC`
Reply text: 2.85

Inquiry: Give reported PBM binding z-score value for `TTACAAAGGTGAAAGGTCGTTGATGCACGCCTTG`
Reply text: 3.11

Inquiry: Give reported PBM binding z-score value for `CCAGACAGGTGAAAGGTAACTCACTCTGGTACGC`
Reply text: 1.03

Inquiry: Give reported PBM binding z-score value for `CTATGTAGGTTAAGGGGGTAATTCAGTTTGAAAG`
Reply text: 2.44

Inquiry: Give reported PBM binding z-score value for `ATCTCTAGGTGAAAGTTCAGTGAATCCCGAGGAT`
Reply text: 2.19

----------
- System: PPARg:RXRa 90nM:30nM, anti-RXR (NR concentration 90 nM, RXRa partner concentration 30 nM)
- TEST PROTOCOL: PBM binding z-score (relative to random genomic background probes); higher = stronger binding; sequences stand for … in GC…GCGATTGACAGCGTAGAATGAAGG
Category scheme (PBM binding z-score): low: < 2; mid: ≥ 2 and < 7; high: ≥ 7

Inquiry: Class for `ACTAGTTGTTCAGCTGAGGTCACACACAATTCGG` ?
Reply text: low

Inquiry: Class for `AGCTCTAGGTAAAAGTTCAGTGAATCCCGAGGAT` ?
Reply text: high

Inquiry: Class for `CGAACTAGGTCAGAACAGGACAGTTAAGGATGAT` ?
Reply text: mid

Inquiry: Class for `TCGAGTAGGTTACGGGGGCATTCTGGGATGAAGA` ?
Reply text: mid

Inquiry: Class for `CCGAGTAGGTTACGAGTGGGCATTCAGTGCGAAT` ?
Reply text: low

Inquiry: Class for `CGAACTAGGACACCAGGACAGTGAAGAGGTTGGA` ?
Reply text: low

Inquiry: Class for `CATACACGGTCAGCTAGGCCAGAGTAGGGACGGC` ?
Reply text: low

Inquiry: Class for `CAAACTAGGTCAAAGGACAGTGAAAGGCGACGTA` ?
Reply text: high

Inquiry: Class for `TCGAGTAGGTTACGGGGGTATTCAGGGATGAAGA` ?
Reply text: mid

Inquiry: Class for `CGTCCAAGGTCAGCAGGTGAGTGAAAGCGACGTG` ?
Reply text: mid

Inquiry: Class for `ATCGTAAGGTCGTGAGGTGAGTATACAGAAAGGC` ?
Reply text: low

Inquiry: Class for `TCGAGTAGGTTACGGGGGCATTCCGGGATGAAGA` ?
Reply text: mid

Inquiry: Class for `TCGAGTAGGTTACGGGGGAATTCAGGGATGAAGA` ?
Reply text: mid

Inquiry: Class for `TTACCAAGGTGAAAGGTCATTGATGCACGCCTTG` ?
Reply text: high

Inquiry: Class for `ACTAGGAGGACAAAGGTCAGAGCTACGCCAGTGA` ?
Reply text: high

Inquiry: Class for `CGTCCAAGGTCAAAGGTCACTGAAGAGATGACGG` ?
Reply text: high

Inquiry: Class for `CCATGTAGGTTAAGGGGGTCATTCAGTTTGAAAG` ?
Reply text: mid

Inquiry: Class for `CCTAGTTGGTCAAGCTCACACACGCTATAGGTAC` ?
Reply text: low

Inquiry: Class for `CCAGACAGGTGAAAGGTCACTCAGTCTGGTACGC` ?
Reply text: high

Inquiry: Class for `CGAACTAGGTCGAAGGACAGTGAAAGGCGACGTA` ?
Reply text: mid

Inquiry: Class for `CGGCCAAGGTCAAAGGTCAGTGAAGAGATGACGG` ?
Reply text: high

Inquiry: Class for `CTATGTAGGTTAAGGGGGTCATTTAGTTTGAAAG` ?
Reply text: high

Inquiry: Class for `AATACAGGGTCCTCGTAGGCCAGAGTACGCACAG` ?
Reply text: low

Inquiry: Class for `GCTAGTTGGTCAGTAAATGGTCACACACCGGTCG` ?
Reply text: low

Inquiry: Class for `ATATGTAGGTTACATCCGGGTCATTCTGGCTATG` ?
Reply text: mid

Inquiry: Class for `CGAACTAGGTCCCCAGGACAGTGAAGAGGTTGGA` ?
Reply text: low

Inquiry: Class for `ACTAGTTGGTCAGCTGAGGTCACACAAAATTCGG` ?
Reply text: low

Inquiry: Class for `TCGCGTAGGTTACGGGGGCATTCAGGGATGAAGA` ?
Reply text: mid

Inquiry: Class for `CTATGTAGGTTAAGGGGGTCATGCAGTTTGAAAG` ?
Reply text: high

Inquiry: Class for `CGTCCAAGGTCAACAGGTCAGTGAAAGCGACGTG` ?
Reply text: mid

Inquiry: Class for `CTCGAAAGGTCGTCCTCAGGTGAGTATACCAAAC` ?
Reply text: mid

Inquiry: Class for `ATATGTAGGTTCGGGTCATTCAGAAAGTAGGGAA` ?
Reply text: mid

Inquiry: Class for `TCTTGTAGATCAAAGGTTAAGACAGCCGAAGCCT` ?
Reply text: high

----------
- Tested on: PPARg homodimer (NR concentration 180 nM)
- TEST PROTOCOL: PBM binding z-score (relative to random genomic background probes); higher = stronger binding; sequences stand for … in GC…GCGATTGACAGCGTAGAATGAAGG
Hi, to clarify the labels: Satisfied covers PBM binding z-score from 2 upward, Not satisfied covers anything below 2.

Inquiry: Check if PBM binding z-score >= 2 (inclusive). Item: `CGAACTAGGTCACCAGGAGAGTGAAGAGGTTGGA`
Reply text: Satisfied

Inquiry: Check if PBM binding z-score >= 2 (inclusive). Item: `CATACTAGGTCAAAGGTCAAAGTCGAGCCAACCA`
Reply text: Satisfied

Inquiry: Check if PBM binding z-score >= 2 (inclusive). Item: `TCGATTAGGTTACGGGGGCATTCAGGGATGAAGA`
Reply text: Satisfied

Inquiry: Check if PBM binding z-score >= 2 (inclusive). Item: `ATCGAAAGGTCGTGAGGTGAGTACACAGAAAGGC`
Reply text: Satisfied

Inquiry: Check if PBM binding z-score >= 2 (inclusive). Item: `CGAACGAGGTCAGAACAGGACAGTGAAGGATGAT`
Reply text: Not satisfied

Inquiry: Check if PBM binding z-score >= 2 (inclusive). Item: `CGAACTAGGTCAAATGACAGTGAAAGGCGACGTA`
Reply text: Satisfied

Inquiry: Check if PBM binding z-score >= 2 (inclusive). Item: `CGAACTAAGTCAAAGGACAGTGAAAGGCGACGTA`
Reply text: Not satisfied

Inquiry: Check if PBM binding z-score >= 2 (inclusive). Item: `ATATGTAGGTTAAGGGTCATGCAGGTTGGTTCGC`
Reply text: Satisfied

Inquiry: Check if PBM binding z-score >= 2 (inclusive). Item: `TTTAGTTGGTCAAAGGTCACACACTCGAAATGCG`
Reply text: Satisfied

Inquiry: Check if PBM binding z-score >= 2 (inclusive). Item: `GTACCAAGGTGAATAGGTCGTTGATGAGTAGGCG`
Reply text: Not satisfied

Inquiry: Check if PBM binding z-score >= 2 (inclusive). Item: `ATCGAAAGGTCGACGAGTTGAGTATACACCGTTT`
Reply text: Not satisfied

Inquiry: Check if PBM binding z-score >= 2 (inclusive). Item: `TAGCCTAGGTCATTCAGGCGCCAGTATAGAAAGC`
Reply text: Not satisfied

Inquiry: Check if PBM binding z-score >= 2 (inclusive). Item: `CCGAGTAGGTTACGAGGGGGCTTTCAGTGCGAAT`
Reply text: Not satisfied

----------
- System: VDR homodimer (NR concentration 270 nM)
- TEST PROTOCOL: PBM binding z-score (relative to random genomic background probes); higher = stronger binding; sequences stand for … in GC…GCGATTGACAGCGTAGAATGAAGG
Category scheme (PBM binding z-score): interval 1: < 0.6; interval 2: ≥ 0.6 and < 2; interval 3: ≥ 2

Inquiry: Class for `ATATGTAGGTTACATCCGAGTCATTCAGGCTATG` ?
Reply text: interval 1

Inquiry: Class for `GCATATAGGTAATTCAAGGTGAAAGTCCGATTGT` ?
Reply text: interval 1

Inquiry: Class for `TCATATAGGTGAAAGGTGAAAGTCGGTGTGGTAA` ?
Reply text: interval 1

Inquiry: Class for `TAGCCTAGGTCACGGGCCAGTATACCACGCGAAC` ?
Reply text: interval 1

Inquiry: Class for `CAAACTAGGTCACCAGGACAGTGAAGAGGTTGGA` ?
Reply text: interval 2

Inquiry: Class for `CCTACTGGGCCAACAAGGTCATTGATGCCGATAA` ?
Reply text: interval 3

Inquiry: Class for `CCTACTGGGCCAAAAATGTCATTGATGCCGATAA` ?
Reply text: interval 1

Inquiry: Class for `AATACAGGGTCACTAGGCCAGAGTGGGTACGAAT` ?
Reply text: interval 3

Inquiry: Class for `AGTCAAAGTTCACTAGGTTACGTAAGATTCAGCT` ?
Reply text: interval 3

Inquiry: Class for `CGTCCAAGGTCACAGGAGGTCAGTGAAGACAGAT` ?
Reply text: interval 3

Inquiry: Class for `TAGCCTCGGTCATTCAGGGGCCAGTATAGAAAGC` ?
Reply text: interval 1

Inquiry: Class for `CGTCTAAGGTCAAGGTCAGTGAAAGAGACTCGAA` ?
Reply text: interval 3

Inquiry: Class for `CCTAGTTGGTCAGGAGGTCACATACCGGATATGA` ?
Reply text: interval 3

Inquiry: Class for `TCATATAGGTCAAAGGTGAAAGTCGGTGTGGTAA` ?
Reply text: interval 2

Inquiry: Class for `TCTAGTTGGTCAAAGGTCAAACACTCGAAATGCG` ?
Reply text: interval 3

Inquiry: Class for `CAACCTAGGTCACGAAAGGTCAAAGTCGAATGAC` ?
Reply text: interval 3

Inquiry: Class for `ATCGAAAGGTCGACGAGGTGAGTATGCACCGTTT` ?
Reply text: interval 2

Inquiry: Class for `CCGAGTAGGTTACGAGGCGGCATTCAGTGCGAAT` ?
Reply text: interval 1

Inquiry: Class for `ATCGAATGGTCGAAGGTGAGTATACCCACCCGAA` ?
Reply text: interval 1

Inquiry: Class for `CAAACTAGGCCAAGGTCAAAGTCGGTTTGTGCCA` ?
Reply text: interval 3

Inquiry: Class for `TAGCCTAGGTCAAGCGGGCCAGTATAGTGTCGGC` ?
Reply text: interval 1

Inquiry: Class for `CCTCGGAGGACAACAGGATGTCAGAGCTGCCAGA` ?
Reply text: interval 1

Inquiry: Class for `CTCGAAAGGTCAGTTGAGGTGAGTATACGGATAA` ?
Reply text: interval 2

Inquiry: Class for `AGTCAAAGGTCAGGACGAGGTAACGTAAAGCACG` ?
Reply text: interval 2

Inquiry: Class for `CCGAGTAGGGTACGAGGGGGCATTCAGTGCGAAT` ?
Reply text: interval 3

Inquiry: Class for `CCTACTGGGCCAAAGGCCATTGATTCCAATGCTC` ?
Reply text: interval 1

Inquiry: Class for `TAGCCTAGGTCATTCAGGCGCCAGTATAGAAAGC` ?
Reply text: interval 2

Inquiry: Class for `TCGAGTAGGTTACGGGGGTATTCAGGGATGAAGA` ?
Reply text: interval 2

Inquiry: Class for `CGAACTAGGTCAAAGGACAGTGCAAGGCGACGTA` ?
Reply text: interval 2

Inquiry: Class for `GATAAAGGGTCAGCTAGAGGCCAGAGTATGGAAA` ?
Reply text: interval 2

Inquiry: Class for `CGTCCAAGGTCAGAGAGGTCACTGAATGCCGAGT` ?
Reply text: interval 3

Inquiry: Class for `CCGTACGGGTCAAGGTTATAGCACGGGTGGTACG` ?
Reply text: interval 2

Inquiry: Class for `CGAACTCGGTCACCAGGACAGTGAAGAGGTTGGA` ?
Reply text: interval 1

Inquiry: Class for `CGTCTAAGGTCAGCAGGTCAGTGAAAGCGACGTG` ?
Reply text: interval 2

Inquiry: Class for `CACACTAGGTCAAAGGTCAAAGTCGAGCCAACCA` ?
Reply text: interval 3

Inquiry: Class for `ATATGGAGGTTAAGGGTCATTCAGGTTGGTTCGC` ?
Reply text: interval 3

Inquiry: Class for `CGTCAAAGTTCTAGGTAACGTAACAGAAAGCAGC` ?
Reply text: interval 1

Inquiry: Class for `ATCGAAAGGTCGACGAGGAGAGTATACACCGTTT` ?
Reply text: interval 2

Inquiry: Class for `AGTGAAAGTTCAGGACGAGGTAACGTAAAGCACG` ?
Reply text: interval 3

Inquiry: Class for `CATAGTTGGTCAAGGTCACACACGCTATAGGTAC` ?
Reply text: interval 3
